System: PC-12
Test: Neuroprotective activity against H202-induced cell death in rat PC-12 cells assessed as cell viability at 20 uM pretreated for 3 hrs followed by H2O2 stimulation and measured after 24 hrs by MTT assay relative to control
Format: functional
Details: time 27 hrs, read-out: Activity
observation.type: viability at 20 µM (%)
Report as a plain number; the unit % is understood.

// worked examples, viability at 20 µM included
> print(dat)
                                   compound    observation.type  recorded.value
1  CCCNCC(=O)Nc1ccc(-c2nc(-c3ccnc(Nc4ccc(OC(F)(F)F)cc4)c3)no2)cc1  viability at 20 µM            52.8
2  O=C(CNCc1cccc(Cl)c1)Nc1ccc(-c2nc(-c3ccnc(Nc4ccc(OC(F)(F)F)cc4)c3)no2)cc1  viability at 20 µM            43.9
3  Cc1ccccc1NCC(=O)Nc1ccc(-c2nc(-c3ccnc(Nc4ccc(OC(F)(F)F)cc4)c3)no2)cc1  viability at 20 µM            55.2
4  COc1ccc(NCC(=O)Nc2ccc(-c3nc(-c4ccnc(Nc5ccc(OC(F)(F)F)cc5)c4)no3)cc2)cc1  viability at 20 µM            44.6
5  O=C(CNCc1cccc(F)c1)Nc1ccc(-c2nc(-c3ccnc(Nc4ccc(OC(F)(F)F)cc4)c3)no2)cc1  viability at 20 µM            36.2
6  O=C(CNC1CC1)Nc1ccc(-c2nc(-c3ccnc(Nc4ccc(OC(F)(F)F)cc4)c3)no2)cc1  viability at 20 µM            46.7

Ask: Annotate the compound O=c1c(O)c(-c2ccc(O)c(O)c2)oc2cc(O)cc(O)c12 [QUERCETIN] with its measured viability at 20 µM.
Result: 59.4

Ask: Annotate the compound CCCCNCC(=O)Nc1ccc(-c2nc(-c3ccnc(Nc4ccc(OC(F)(F)F)cc4)c3)no2)cc1 with its measured viability at 20 µM.
Result: 44.4

Values compiled from ChEMBL document CHEMBL5143529.
